- PROCEDURE DETAILS: Cellular viability qHTS for adrenocortical cancer (ACC) cell line NCI-H295R (AID 1963990); further: nearly all actives have a fitted effect of over 60% in size
- MEASUREMENT PARAMETERS: CellTiter-Glo ATP luminescence, 48 h; series mostly up to 46.1 µM
Inconclusive results are not listed. Calls of active or inactive are those of the source. The call rests on the fitted dose curve; in most records, active means well fitted cell-killing curve with a large enough effect; inconclusive means small, poorly fitted or top-dose-only effect; inactive means flat fitted curve, though single readings scatter.
Possible outcomes: true (1) = active, false (0) = inactive

COMPOUND | QUALITATIVE LABEL
CC(=O)OCC1=C(C(=O)O)N2C(=O)[C@@H](N)[C@H]2SC1 | false (0)
CC(O)CN1CCN(CC(=O)[O-])CCN(CC(=O)[O-])CCN(CC(=O)[O-])CC1.[Gd+3] (stereo not given) | false (0)
CN(C)CCc1c[nH]c2cccc(OP(=O)(O)O)c12 | false (0)
C#CCN(C)[C@H](C)Cc1ccccc1 | false (0)
Cc1sc2c(c1C)C(c1ccc(Cl)cc1)=N[C@@H](CC(=O)OC(C)(C)C)c1nnc(C)n1-2 | true (1)
CCN(CC)CCc1c[nH]c2ccccc12 | false (0)
C[C@@H](N)[C@@H](O)c1ccccc1 | false (0)
N#CC(C#N)=Cc1ccc(O)c(O)c1 | false (0)
COc1cc(C)[nH]c(=O)c1CNC(=O)c1c(C)n([C@H](C)C2CCOCC2)c2ccccc12 | false (0)
Cc1nnc2n1-c1sc(CCc3ccc(CC(C)C)cc3)cc1C(c1ccccc1Cl)=NC2C (stereo not given) | true (1)
CCC(=O)OC1(c2ccccc2)CCN(C)CC1 | false (0)
ClCc1cccc(Cl)c1 | false (0)
CC(C)NCC(O)c1ccc(N)c(C#N)c1 (stereo not given) | false (0)
N[C@@H]1C[C@H]1c1ccccc1 | false (0)
CCC1(c2ccccc2)C(=O)N(COC)C(=O)N(COC)C1=O | false (0)
CCN(C(C)=O)c1cccc(-c2ccnc3c(C#N)cnn23)c1 | false (0)
CN(C)CCc1c[nH]c2ccccc12 | false (0)
OCCCBr | false (0)
CC[N+]1(CC)CCC(OC(=O)C(O)(c2ccccc2)c2ccccc2)C1 (stereo not given) | false (0)
O=C1CC[C@@]2(O)[C@H]3Cc4ccc(O)c5c4[C@@]2(CCN3CC2CC2)[C@H]1O5 | false (0)
